- Target entity: Alpha-1D adrenergic receptor (Rattus norvegicus, UniProt P23944)
- Sequence (P23944 whole entry): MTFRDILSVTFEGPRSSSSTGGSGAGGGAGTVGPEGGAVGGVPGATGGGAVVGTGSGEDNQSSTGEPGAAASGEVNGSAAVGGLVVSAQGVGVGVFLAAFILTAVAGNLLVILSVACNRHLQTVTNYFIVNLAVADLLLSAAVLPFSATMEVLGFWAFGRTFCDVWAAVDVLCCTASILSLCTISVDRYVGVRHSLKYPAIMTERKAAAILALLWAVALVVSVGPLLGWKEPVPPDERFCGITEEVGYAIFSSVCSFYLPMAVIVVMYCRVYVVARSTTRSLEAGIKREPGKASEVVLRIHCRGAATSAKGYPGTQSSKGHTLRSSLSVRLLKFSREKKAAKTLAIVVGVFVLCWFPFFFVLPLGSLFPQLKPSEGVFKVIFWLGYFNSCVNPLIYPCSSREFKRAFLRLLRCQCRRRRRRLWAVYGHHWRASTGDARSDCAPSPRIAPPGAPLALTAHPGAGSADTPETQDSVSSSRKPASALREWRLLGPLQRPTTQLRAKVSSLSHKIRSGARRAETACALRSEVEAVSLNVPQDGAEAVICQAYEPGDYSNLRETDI
- Assay summary: In vitro binding affinity using [3H]prazosin as radioligand against alpha-1D adrenergic receptor expressed in LTK cell
- Type: cell-based
// boundary case: Ki equal to 1 nM maps to 0 (no); strictly smaller maps to 1 (yes)

Consider the following illustrative entries.
{"Molecule": "COc1cccc2c1CC[C@H]1CN(CCn3c(=O)[nH]c4c(sc5cccc(OC)c54)c3=O)C[C@@H]21", "Target entity": "Alpha-1D adrenergic receptor (Rattus norvegicus, UniProt P23944)", "Assigned class": "0 (no)"}
{"Molecule": "COc1cccc2c1CC[C@H]1CN(CCn3c(=O)[nH]c4c(sc5ccc([N+](=O)[O-])cc54)c3=O)C[C@@H]21", "Target entity": "Alpha-1D adrenergic receptor (Rattus norvegicus, UniProt P23944)", "Assigned class": "0 (no)"}
{"Molecule": "COc1cccc2c1CC[C@H]1CN(CCn3c(=O)[nH]c4c(sc5nc(C)cnc54)c3=O)C[C@@H]21", "Target entity": "Alpha-1D adrenergic receptor (Rattus norvegicus, UniProt P23944)", "Assigned class": "0 (no)"}
{"Molecule": "COc1cccc2c1CCC1CN(CCn3c(=O)[nH]c4c(sc5ccccc54)c3=O)CC21 (stereo in doubt; 18)", "Target entity": "Alpha-1D adrenergic receptor (Rattus norvegicus, UniProt P23944)", "Assigned class": "1 (yes)"}

Dear reviewer, please state whether COc1cccc2c1CC[C@H]1CN(CCn3c(=O)[nH]c4c(sc5nc(C)c(C)nc54)c3=O)C[C@@H]21 has Ki strictly beneath 1 nM.
0 (no)

Dear reviewer, please state whether COc1ccc2sc3c(=O)n(CCN4C[C@@H]5CCc6c(OC)cccc6[C@@H]5C4)c(=O)[nH]c3c2n1 has Ki strictly beneath 1 nM.
0 (no)

Dear reviewer, please state whether COc1cccc2c1CC[C@H]1CN(CCn3c(=O)[nH]c4c(sc5cccnc54)c3=O)C[C@@H]21 has Ki strictly beneath 1 nM.
1 (yes)

Dear reviewer, please state whether COc1cccc2c1CC[C@H]1CN(CCn3c(=O)[nH]c4c(sc5ccc(C(=O)N(C)C)cc54)c3=O)C[C@@H]21 has Ki strictly beneath 1 nM.
1 (yes)

Dear reviewer, please state whether COc1cccc2c1CCC1CN(CCn3c(=O)[nH]c4c(sc5ccccc54)c3=O)CC21 (stereo in doubt; 21) has Ki strictly beneath 1 nM.
1 (yes)

Dear reviewer, please state whether COc1cccc2c1CC[C@H]1CN(CCn3c(=O)[nH]c4c(sc5ncncc54)c3=O)C[C@@H]21 has Ki strictly beneath 1 nM.
0 (no)
